B1: library; numbered along this chain (parent)
chain: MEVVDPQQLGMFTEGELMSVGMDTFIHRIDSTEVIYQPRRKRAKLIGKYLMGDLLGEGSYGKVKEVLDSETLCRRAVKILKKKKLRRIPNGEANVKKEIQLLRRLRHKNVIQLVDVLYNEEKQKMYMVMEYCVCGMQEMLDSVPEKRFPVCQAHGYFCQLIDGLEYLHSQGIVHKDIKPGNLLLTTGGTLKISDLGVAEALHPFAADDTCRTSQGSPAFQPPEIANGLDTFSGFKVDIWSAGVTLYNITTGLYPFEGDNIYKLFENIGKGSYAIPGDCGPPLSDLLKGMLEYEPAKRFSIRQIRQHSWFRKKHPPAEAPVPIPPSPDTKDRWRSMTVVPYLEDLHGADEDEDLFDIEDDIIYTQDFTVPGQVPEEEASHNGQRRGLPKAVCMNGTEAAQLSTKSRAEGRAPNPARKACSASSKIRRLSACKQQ

variants of: B1; assay: STK11 functional score (HeLa growth suppression), rescaled enrichment; synonymous median = 1, nonsense median = 0 (normalised score); conditions: with HeLa; variant type: missense
The variants listed here are annotated with their STK11 functional score.
Write the number on its own, no unit after it.

Sample answers from the record:
[
  {
    "VARIANT_NAME": "F219A",
    "STK11 functional score": 0.528
  },
  {
    "VARIANT_NAME": "S19E",
    "STK11 functional score": 1.45
  },
  {
    "VARIANT_NAME": "L427S",
    "STK11 functional score": 1.55
  },
  {
    "VARIANT_NAME": "I177S",
    "STK11 functional score": -0.0448
  }
]

Exercise: Tell me the measured STK11 functional score of F148W , please.
Solution: 0.336
